// provenance: ChEMBL document CHEMBL2346497

Collected Time values appear next to each entry.
# System: Rattus norvegicus
# EXPERIMENT_SUMMARY: Procognitive effect in Harlan Wistar rat assessed as exploring time of familiar rat during social investigatory behaviour at 10 mg/kg, po administered 30 mins prior to testing measured for 5 mins by social learning test (reference value: 27.6 secs)
# Assay type: functional
The reply should contain only the number, in s.

Use the examples below as a reference point.
- ENTRY_SMILES: "Cc1noc(-c2cnn3c2n[n+]([O-])c2ccc(OCc4ccccc4)cc23)n1"
  ASSAY_SYSTEM: "Rattus norvegicus"
  UNIT_DESCRIPTOR: "s"
  Time: 43.1
- ENTRY_SMILES: "Cc1noc(-c2cnn3c2n[n+]([O-])c2ccc(OCc4ccncc4)cc23)n1"
  ASSAY_SYSTEM: "Rattus norvegicus"
  UNIT_DESCRIPTOR: "s"
  Time: 44.6
- ENTRY_SMILES: "[O-][n+]1nc2c(I)cnn2c2cc(NCc3cccnc3)ccc21"
  ASSAY_SYSTEM: "Rattus norvegicus"
  UNIT_DESCRIPTOR: "s"
  Time: 42.5
- ENTRY_SMILES: "[O-][n+]1nc2c(-c3ncn[nH]3)cnn2c2cc(OCc3ccccc3)ccc21"
  ASSAY_SYSTEM: "Rattus norvegicus"
  UNIT_DESCRIPTOR: "s"
  Time: 40.3
- ENTRY_SMILES: "[O-][n+]1nc2c(I)cnn2c2cc(OCc3cccs3)ccc21"
  ASSAY_SYSTEM: "Rattus norvegicus"
  UNIT_DESCRIPTOR: "s"
  Time: 32.5

We next turn to a different compound, shown below.
Query: Return Time for the following compound: Cc1cnn2c1n[n+]([O-])c1ccc(OCc3ccncc3)cc12
Result: 41.4

* * *

# EXPERIMENT_SUMMARY: Displacement of [3H]Ro15-1788 from GABA-A receptor benzodiazepine binding site in bovine cerebral cortex membranes after 1 hr
# Assay type: cell membranes, Bos taurus, Membrane
pKi: −log10 of the molar value.
pKi vs 7: at or above is Condition met, below is Condition not met.

- ENTRY_SMILES: "CN(C)/C=N/C(=O)c1cnn2c1n[n+]([O-])c1ccc(OCc3cccs3)cc12"
  ANSWER_LABEL: "Condition not met"
- ENTRY_SMILES: "Cc1cnn2c1n[n+]([O-])c1ccc(OCc3ccco3)cc12"
  ANSWER_LABEL: "Condition met"
- ENTRY_SMILES: "[O-][n+]1nc2c(I)cnn2c2cc(NCc3ccccn3)ccc21"
  ANSWER_LABEL: "Condition met"
- ENTRY_SMILES: "Cc1noc(-c2cnn3c2n[n+]([O-])c2ccc(OCc4ccncc4)cc23)n1"
  ANSWER_LABEL: "Condition not met"
- ENTRY_SMILES: "NC(=O)c1cnn2c1n[n+]([O-])c1ccc(OCc3ccncc3)cc12"
  ANSWER_LABEL: "Condition not met"
- ENTRY_SMILES: "[O-][n+]1nc2c(-c3ncn[nH]3)cnn2c2cc(OCc3ccccc3)ccc21"
  ANSWER_LABEL: "Condition not met"

Query: Answer whether pKi of NC(=O)c1cnn2c1n[n+]([O-])c1ccc(OCc3ccccc3)cc12 is greater than or equal to 7.
Result: Condition not met

Query: Decide: is the reported value of pKi for CN(C)/C=N/C(=O)c1cnn2c1n[n+]([O-])c1ccc(OCc3ccncc3)cc12 equal to or greater than 7?
Result: Condition not met

Query: Could you please find out whether Cc1cnn2c1n[n+]([O-])c1ccc(OCc3ccncc3)cc12 has pKi that meets 7 or exceeds it?
Result: Condition met

Query: Say whether [O-][n+]1ccc(COc2ccc3c(c2)n2ncc(I)c2n[n+]3[O-])cc1 shows pKi of 7 or more.
Result: Condition met

Query: Decide: is the reported value of pKi for NC(=O)c1cnn2c1n[n+]([O-])c1ccc(OCc3cccs3)cc12 equal to or greater than 7?
Result: Condition not met

Query: Decide: pKi of [O-][n+]1nc2c(I)cnn2c2cc(NCc3ccncc3)ccc21 >= 7?
Result: Condition met

Query: State whether the measured pKi reaches 7, counting equality as reaching it, for [O-][n+]1nc2c(I)cnn2c2cc(NCc3cccnc3)ccc21
Result: Condition met

* * *

# ASSAY_SYSTEM: GABA-A receptor; alpha-1/beta-2/gamma-2 (Homo sapiens, UniProt P14867+P18507+P47870)
# Sequence (P14867 whole entry): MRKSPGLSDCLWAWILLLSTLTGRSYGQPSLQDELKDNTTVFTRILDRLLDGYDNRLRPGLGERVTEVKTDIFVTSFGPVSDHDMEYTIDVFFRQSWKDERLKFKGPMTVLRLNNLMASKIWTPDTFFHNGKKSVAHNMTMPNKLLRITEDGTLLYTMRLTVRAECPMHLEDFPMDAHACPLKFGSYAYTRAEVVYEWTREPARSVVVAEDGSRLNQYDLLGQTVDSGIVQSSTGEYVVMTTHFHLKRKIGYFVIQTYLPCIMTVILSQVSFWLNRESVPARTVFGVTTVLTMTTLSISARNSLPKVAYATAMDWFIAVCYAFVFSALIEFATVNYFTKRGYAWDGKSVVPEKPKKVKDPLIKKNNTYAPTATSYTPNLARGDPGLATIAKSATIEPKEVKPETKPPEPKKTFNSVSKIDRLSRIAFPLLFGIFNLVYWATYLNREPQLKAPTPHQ
# Sequence (P47870 whole entry): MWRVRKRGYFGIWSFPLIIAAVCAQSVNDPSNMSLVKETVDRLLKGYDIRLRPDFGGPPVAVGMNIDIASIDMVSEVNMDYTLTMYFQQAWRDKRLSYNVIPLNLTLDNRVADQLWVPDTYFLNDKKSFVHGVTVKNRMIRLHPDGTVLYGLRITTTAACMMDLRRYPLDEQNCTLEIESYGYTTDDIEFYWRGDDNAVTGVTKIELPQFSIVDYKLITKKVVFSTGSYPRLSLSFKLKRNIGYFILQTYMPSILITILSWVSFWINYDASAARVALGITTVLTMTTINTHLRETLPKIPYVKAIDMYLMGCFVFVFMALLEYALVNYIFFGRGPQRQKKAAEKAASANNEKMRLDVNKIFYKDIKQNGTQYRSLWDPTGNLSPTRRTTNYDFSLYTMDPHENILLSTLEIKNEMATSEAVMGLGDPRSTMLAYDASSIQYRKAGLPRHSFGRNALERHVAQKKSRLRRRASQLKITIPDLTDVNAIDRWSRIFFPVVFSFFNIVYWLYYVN
# Sequence (P18507 whole entry): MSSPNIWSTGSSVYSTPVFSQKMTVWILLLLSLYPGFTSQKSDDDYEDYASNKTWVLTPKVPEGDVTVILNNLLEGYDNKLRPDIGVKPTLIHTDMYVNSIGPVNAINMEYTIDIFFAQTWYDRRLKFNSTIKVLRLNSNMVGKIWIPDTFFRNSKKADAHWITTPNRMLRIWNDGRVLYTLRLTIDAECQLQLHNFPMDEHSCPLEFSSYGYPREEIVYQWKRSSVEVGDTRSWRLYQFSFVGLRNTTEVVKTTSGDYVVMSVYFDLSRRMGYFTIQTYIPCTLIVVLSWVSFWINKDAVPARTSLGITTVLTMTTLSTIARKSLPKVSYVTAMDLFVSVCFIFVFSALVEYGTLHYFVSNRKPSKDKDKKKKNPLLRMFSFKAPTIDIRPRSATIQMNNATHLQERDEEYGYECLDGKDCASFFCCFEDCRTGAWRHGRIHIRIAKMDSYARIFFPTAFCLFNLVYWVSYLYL
# EXPERIMENT_SUMMARY: Displacement of [3H]Ro15-1788 from recombinant GABA-A alpha1beta2gamma2 receptor benzodiazepine binding site (unknown origin) after 1 hr
# Type: protein-complex assay
Items are presented alongside their recorded Ki.

- ENTRY_SMILES: "[O-][n+]1nc2c(I)cnn2c2cc(NCc3cccnc3)ccc21"
  ASSAY_VALUE: "0.45 nM"

In the following, a different molecule is considered.
Query: Name the recorded Ki of the item Cc1cnn2c1n[n+]([O-])c1ccc(OCc3ccncc3)cc12 in your answer.
Result: 22.7 nM

* * *

# EXPERIMENT_SUMMARY: Displacement of [3H]Ro15-1788 from GABA-A receptor benzodiazepine binding site in bovine cerebral cortex membranes after 1 hr
# Format: cell membranes, Bos taurus, Membrane
OUTCOME_MEASURE: pKi
# pKi = -log10(concentration in molar units)

- ENTRY_SMILES: "CN(C)/C=N/C(=O)c1cnn2c1n[n+]([O-])c1ccc(OCc3ccccc3)cc12"
  pKi: 7.06
- ENTRY_SMILES: "Cc1noc(-c2cnn3c2n[n+]([O-])c2ccc(OCc4ccccc4)cc23)n1"
  pKi: 7.15
- ENTRY_SMILES: "[O-][n+]1nc2c(-c3ncn[nH]3)cnn2c2cc(OCc3ccncc3)ccc21"
  pKi: 6.77

Query: Note pKi for the molecule shown: Cc1noc(-c2cnn3c2n[n+]([O-])c2ccc(OCc4cccs4)cc23)n1
Result: 5.79
